B1: FBXO3 (parent)
chain: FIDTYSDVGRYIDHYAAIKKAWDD

- Variants of: B1
- Test Details: protein stability index of a GFP-peptide fusion (GPS, HEK-293T) (PSI 1-6); higher = more stable;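 further: lentivirally expressed fusions sorted by FACS into six bins by GFP to DsRed ratio, PSI derived from sequencing read proportions per bin multiplied by bin number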
- Measurement Setup: c terminus: a fixed tail appended
Decision: protein stability index >= 2 yields Criterion met, all other cases yield Criterion not met.

Check out these entries, answers already filled in.
# Sequence Change, Class Name
rows = [
    ("Y11G", "Criterion not met"),
    ("K20H", "Criterion not met"),
    ("W22K", "Criterion met"),
    ("Y15K", "Criterion not met"),
    ("Y5M", "Criterion met"),
]

Identify whether the reported protein stability index of the following variant is 2 or greater: A17N Criterion not met

Please check the record I12K and state if its protein stability index is at or above 2. Criterion not met

Could you please find out whether F1T has protein stability index that meets 2 or exceeds it? Criterion met

Please tell me: is the variant T4I at or over 2 in terms of protein stability index? Criterion not met

API: above_or_equal(metric=protein stability index, cutoff=2) for item D7W Criterion met

Answer whether protein stability index of I2R is greater than or equal to 2. Criterion met
